B1: TPR 5TU (parent)
chain: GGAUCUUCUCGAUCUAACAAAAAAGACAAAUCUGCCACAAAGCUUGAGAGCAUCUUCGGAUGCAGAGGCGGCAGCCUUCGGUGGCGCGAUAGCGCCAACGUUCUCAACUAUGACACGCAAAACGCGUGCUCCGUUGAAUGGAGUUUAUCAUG

variants of: B1; experiment: polymerase ribozyme fitness, log enrichment relative to wild type (log ratio); higher = more active; in vitro selection for triplet polymerase activity
This sample holds only a part of the variants without activity.

VARIANT_KEY | RELATIONAL_OPERATOR | polymerase ribozyme fitness (log ratio)
U7A U31G G81C G84U C95U A107G G128U A137G | ≤ | -4.2
A3G A17U A60U | = | -1.21
C51U C75G G88A U130A | ≤ | -4.2
G34U A41G A47C C116U | ≤ | -4.2
C35U C43A G58U C75G C87G A121U C123U G133A | ≤ | -4.2
G50A C76U C93U A98C | = | -3.32
A12U G59U C69A C96U | = | -2.45
A37C U56A U90A C103G A121U C123U G141C | ≤ | -4.2
C35U C43A C95G U101C | ≤ | -4.2
A91U C108A C114A C129A U146A | ≤ | -4.2
A47C A49C U144G | = | -4
A17U G92U U101G U127G U148A | = | -4.01
A60U G143A | = | -1.07
U31A G59C C75U A91U U109G G112A | ≤ | -4.2
A3U U56C C87U A89G U101G | = | -2.52
A49C G92U U127C | ≤ | -4.2
A3C A24G C36U A41U C72U C85A A91U U151A G152C | ≤ | -4.2
C35U C96U | = | -0.126
A19U A20U C85U A142G | = | -2.89
C8G G42C G50C A91C C93A | ≤ | -4.2
C63A A107C U111C A122G | ≤ | -4.2
G94C U104G | = | -1.24
C5U A64C G84A A122G G124U U144G U151A | ≤ | -4.2
A20U G94A | = | -1.88
C10A A23C G50A C75G C95U C96A C123G | ≤ | -4.2
A19U A29U A39G U44G C85U G143U | ≤ | -4.2
U9C C10G C36G U55A G84A G126A | ≤ | -4.2
A17U G94C C132U | = | -1.54
A12U U56G A91G | = | -2.61
C35U C95U C96G | = | -1.52
A3C A30U C93U A115G | ≤ | -4.2
A19U C123U | = | -0.609
C69U G71U C87U A89C | = | -3.31
G83U C103G A107U | ≤ | -4.2
A52C U148A | = | -4.18
A41C A47U G59U U61A G70C G84U C125A | ≤ | -4.2
C27G A37U A40C A64G G81A C95G A138C | = | -3.88
C10U A16C A39C G50U U56A G67C G94C C108U | ≤ | -4.2
U44A A49U C54U G59U G92A A106U | ≤ | -4.2
U77G A107U U144C U145C | ≤ | -4.2
G86U G141A U146C | = | -1.62
U56A A150C | = | -3.35
A106G G117A | = | 0.816
G84U G86C C93G A98U A142U | = | -1.78
U77G G117U | ≤ | -4.2

Source listed as the RNAGym collection of RNA variant scans (doi:10.1073/pnas.2313332121).
